target: Histamine H3 receptor (Homo sapiens)
Sequence (Q9Y5N1 whole entry): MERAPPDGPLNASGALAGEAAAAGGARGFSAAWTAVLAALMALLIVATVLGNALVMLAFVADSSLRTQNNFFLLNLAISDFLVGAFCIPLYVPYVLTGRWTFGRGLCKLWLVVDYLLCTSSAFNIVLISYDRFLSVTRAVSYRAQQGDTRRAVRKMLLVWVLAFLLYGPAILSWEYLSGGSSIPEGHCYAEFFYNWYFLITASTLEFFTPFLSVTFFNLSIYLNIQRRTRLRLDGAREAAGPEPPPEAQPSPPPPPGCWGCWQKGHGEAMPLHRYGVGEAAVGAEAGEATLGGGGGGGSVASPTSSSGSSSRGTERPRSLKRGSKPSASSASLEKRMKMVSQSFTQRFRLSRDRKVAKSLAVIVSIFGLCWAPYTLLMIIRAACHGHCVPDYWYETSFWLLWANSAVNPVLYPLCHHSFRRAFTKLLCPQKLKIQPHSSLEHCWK
Ki less than 300 nM is y; Ki greater than or equal to 300 nM is n.

Below, 6 compounds whose answers are already recorded.
q: Hello, is Ki of the following compound strictly smaller than 300 nM? "C1CCN(CCCOc2nc3c(s2)CCCC3)CC1"
a: n

q: Hello, is Ki of the following compound strictly smaller than 300 nM? "CN(C)CCCOc1nc2c(s1)CCN(C)C2"
a: y

q: Hello, is Ki of the following compound strictly smaller than 300 nM? "CC(=O)c1nc(OCCCN2CCCCC2)sc1C"
a: y

q: Hello, is Ki of the following compound strictly smaller than 300 nM? "CN(C)CCCOc1nc2c(s1)CCCC2"
a: n

q: Hello, is Ki of the following compound strictly smaller than 300 nM? "CCN1CCc2sc(OCCCN3CCCCC3)nc2C1"
a: y

q: Hello, is Ki of the following compound strictly smaller than 300 nM? "Brc1nc(OCCCN2CCCCC2)sc1-c1ccccc1"
a: y

Could you now consider this next compound?
q: Hello, is Ki of the following compound strictly smaller than 300 nM? "O=C1CCCc2sc(OCCCN3CCCCC3)nc21"
a: n
